Recorded CTG-3D luminescence at 96 h for the following compounds
test system: HCI-017.E2 (organoid from an ER-positive breast cancer xenograft); assay: CTG-3D luminescence at 96 h relative to day-0 seeding control (ratio to day 0); higher = more growth / less cytotoxicity; PDxO 3D drug screen, 96 h, CTG-3D normalised to day-0 seeding control.; conditions: 10 µM

{"columns": ["Compound", "Test target", "CTG-3D luminescence at 96 h"],
 "data": [
  ["CC1(C)CCC(c2ccc(Cl)cc2)=C(CN2CCN(c3ccc(C(=O)NS(=O)(=O)c4ccc(N[C@H](CCN5CCOCC5)CSc5ccccc5)c(S(=O)(=O)C(F)(F)F)c4)cc3)CC2)C1 [navitoclax]", "HCI-017.E2", 1.7],
  ["CNC(=O)c1cccc(-c2ccc3c(N4CCOC[C@@H]4C)nc(N4CCOC[C@@H]4C)nc3n2)c1 [vistusertib]", "HCI-017.E2", 0.585],
  ["CC(C)n1nc(-c2ccc3oc(N)nc3c2)c2c(N)ncnc21 [sapanisertib]", "HCI-017.E2", 0.251],
  ["CN(Cc1cnc2nc(N)nc(N)c2n1)c1ccc(C(=O)N[C@@H](CCC(=O)O)C(=O)O)cc1 [methotrexate]", "HCI-017.E2", 2.19],
  ["C/C=C1\\NC(=O)[C@H]2CSSCC/C=C/[C@H](CC(=O)N[C@H](C(C)C)C(=O)N2)OC(=O)[C@H](C(C)C)NC1=O [romidepsin]", "HCI-017.E2", 0.033],
  ["NC(=O)c1cccc2cn(-c3ccc([C@@H]4CCCNC4)cc3)nc12 [niraparib]", "HCI-017.E2", 1.58],
  ["CCN1CCN(Cc2ccc(Nc3ncc(F)c(-c4cc(F)c5nc(C)n(C(C)C)c5c4)n3)nc2)CC1 [abemaciclib]", "HCI-017.E2", 1.5],
  ["C=CCn1c(=O)c2cnc(Nc3ccc(N4CCN(C)CC4)cc3)nc2n1-c1cccc(C(C)(C)O)n1 [adavosertib]", "HCI-017.E2", 1.28]
]}

Origin of values: the supplement of paper PMC8882468
